Entries annotated with measured pIC50
Molecular target: MCH-2 (Homo sapiens)
Test: Fluorescence enzyme assay, IC50 determination, Mch2
Format: biochemical
Conditions: Table 3; method of Preparation 3A; read-out: MCH2 I50
Give only the number. pIC50 is defined as minus log10 of concentration in molar units.

CC(C)C[C@H](NC(=O)COc1cccc2ccccc12)C(=O)N[C@H](C=O)CC(=O)O: 6.07
CC(C)C[C@H](NC(=O)COc1ccc2c(c1)CCCC2)C(=O)N[C@H](C=O)CC(=O)O: 4.54
CC(C)C[C@H](NC(=O)COc1ccccc1Cc1ccccc1)C(=O)N[C@H](C=O)CC(=O)O: 5.00
CC(C)C[C@H](NC(=O)CCC(=O)c1ccc2ccccc2c1)C(=O)N[C@H](C=O)CC(=O)O: 4.99
CC(C)C[C@H](NC(=O)COc1ccc(Oc2ccccc2)cc1)C(=O)N[C@H](C=O)CC(=O)O: 4.67

Query :: Item Cc1ccc2ccccc2c1OCC(=O)N[C@@H](CC(C)C)C(=O)N[C@H](C=O)CC(=O)O : provide pIC50
Result :: 4.49

Query :: Item CC(C)C[C@H](NC(=O)CSc1cccc2ccccc12)C(=O)N[C@H](C=O)CC(=O)O : provide pIC50
Result :: 5.84

Query :: Item CC(C)C[C@H](NC(=O)COc1cccc2cnccc12)C(=O)N[C@H](C=O)CC(=O)O : provide pIC50
Result :: 4.37

* * *

Entries annotated with measured pKi
Target: MCH-2 (Homo sapiens, UniProt P55212)
Sequence (P55212 24-179 limits assumed): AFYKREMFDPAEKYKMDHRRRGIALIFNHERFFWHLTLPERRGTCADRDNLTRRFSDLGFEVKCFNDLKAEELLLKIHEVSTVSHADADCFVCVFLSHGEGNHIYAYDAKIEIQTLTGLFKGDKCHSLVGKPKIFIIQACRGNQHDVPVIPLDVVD
Sequence (P55212 194-293 limits assumed): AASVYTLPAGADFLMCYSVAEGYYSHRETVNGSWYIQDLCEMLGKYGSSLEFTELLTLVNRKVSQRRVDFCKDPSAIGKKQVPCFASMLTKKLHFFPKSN
Test: Dissociation constant Ki and irreversible rate constant k3 for irreversible inhibitors, Mch2
Conditions: continuous assay 60 min, reaction initiated by adding enzyme
Give only the number. pKi is defined as minus log10 of concentration in molar units.

CC(C)[C@H](NC(=O)COc1cccc2ccccc12)C(=O)N[C@@H](CC(=O)O)C(=O)COc1ccc(F)c(F)c1F [Example 74]: 5.90
CC(C)[C@H](NC(=O)COc1cccc2ccccc12)C(=O)N[C@@H](CC(=O)O)C(=O)COc1cc(F)cc(F)c1F [Example 75]: 6.66
CC(C)[C@H](NC(=O)COc1cccc2ccccc12)C(=O)N[C@@H](CC(=O)O)C(=O)COP(=O)(c1ccccc1)c1ccccc1 [Example 103]: 7.42
CC(C)[C@H](NC(=O)COc1ccccc1-c1ccccc1)C(=O)N[C@@H](CC(=O)O)C(=O)COc1c(F)c(F)cc(F)c1F [Example 152]: 7.96
CC(C)[C@H](NC(=O)CCOc1cccc2ccccc12)C(=O)N[C@@H](CC(=O)O)C(=O)COc1cc(C(F)(F)F)n(-c2ccccc2)n1 [Example 159]: 6.95
CC(C)C[C@H](NC(=O)COc1c(C(=O)O)ccc2ccccc12)C(=O)N[C@@H](CC(=O)O)C(=O)COP(=O)(c1ccccc1)c1ccccc1 [Example 166]: 7.96
C[C@H](NC(=O)COc1ccccc1-c1ccccc1)C(=O)NC(CC(=O)O)C(=O)COc1c(F)c(F)cc(F)c1F (stereo partly shown) [Example 177]: 7.33
CC(C)[C@H](NC(=O)COc1cccc2ccccc12)C(=O)N[C@@H](CC(=O)O)C(=O)COc1ccc(F)cc1F [Example 69]: 6.02
CC(C)[C@H](NC(=O)COc1cccc2ccccc12)C(=O)N[C@@H](CC(=O)O)C(=O)COc1ccc(F)cc1 [Example 67]: 6.69
CC(C)C(NC(=O)COc1ccccc1-c1ccccc1)C(=O)NC(CC(=O)O)C(=O)CF (stereo not shown) [Example 56]: 7.28

Query :: Item CCCCCCP(=O)(OCC(=O)[C@H](CC(=O)O)NC(=O)[C@@H](NC(=O)COc1cccc2ccccc12)C(C)C)c1ccc(F)cc1 (stereo partly shown) [Example 109] : provide pKi
Result :: 6.92

Query :: Item CC(C)[C@H](NC(=O)COc1cccc2ccccc12)C(=O)N[C@@H](CC(=O)O)C(=O)COP(C)(=O)c1ccc(F)cc1 (stereo partly shown) [Example 108] : provide pKi
Result :: 7.43

Query :: Item CC(C)[C@H](NC(=O)CCOc1cccc2ccccc12)C(=O)N[C@@H](CC(=O)O)C(=O)COC(=O)c1c(Cl)cccc1Cl [Example 158] : provide pKi
Result :: 7.66

* * *

Target: CPP32 (Homo sapiens)
Sequence (P42574 29-175 limits assumed, species assumed): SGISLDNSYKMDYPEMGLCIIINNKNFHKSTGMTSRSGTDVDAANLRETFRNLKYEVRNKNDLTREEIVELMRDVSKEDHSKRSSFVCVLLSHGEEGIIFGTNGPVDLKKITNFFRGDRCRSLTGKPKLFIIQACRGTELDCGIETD
Sequence (P42574 176-277 limits assumed, species assumed): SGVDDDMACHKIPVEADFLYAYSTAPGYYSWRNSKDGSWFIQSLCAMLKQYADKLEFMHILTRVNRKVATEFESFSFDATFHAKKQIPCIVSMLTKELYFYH
Assay: Fluorescence enzyme assay, IC50 determination, CPP32
Type: biochemical
Settings: Table 3; method of Preparation 3A; read-out: CPP32 I50
metric: pIC50
Give only the number. pIC50 is defined as minus log10 of concentration in molar units.

CC(C)C[C@H](NC(=O)CCSc1ccc2ccccc2c1)C(=O)N[C@H](C=O)CC(=O)O: 6.08
CC(C)C[C@H](NC(=O)COc1cccc2c1CCCC2)C(=O)N[C@H](C=O)CC(=O)O: 6.49
CC(C)C[C@H](NC(=O)CCSc1cccc2ccccc12)C(=O)N[C@H](C=O)CC(=O)O: 6.39
CC(C)C[C@H](NC(=O)COc1cccc2cccnc12)C(=O)N[C@H](C=O)CC(=O)O: 6.83
CC(C)C[C@H](NC(=O)COc1ccc(-c2ccccc2)cc1)C(=O)N[C@H](C=O)CC(=O)O: 6.12

Query :: Item CC(C)C[C@H](NC(=O)COc1ccc(Cc2ccccc2)cc1)C(=O)N[C@H](C=O)CC(=O)O : provide pIC50
Result :: 6.46

* * *

Molecular target: MCH-3 (Homo sapiens, UniProt P55210)
Sequence (P55210 24-198 limits assumed): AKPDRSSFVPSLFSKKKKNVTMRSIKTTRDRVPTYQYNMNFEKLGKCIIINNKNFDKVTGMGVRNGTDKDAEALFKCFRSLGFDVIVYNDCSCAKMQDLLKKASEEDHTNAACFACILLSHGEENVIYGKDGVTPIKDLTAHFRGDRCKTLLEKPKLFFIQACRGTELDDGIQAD
Sequence (P55210 207-303 limits assumed): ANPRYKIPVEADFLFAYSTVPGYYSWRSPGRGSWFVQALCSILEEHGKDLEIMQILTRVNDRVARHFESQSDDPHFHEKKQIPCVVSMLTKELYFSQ
Assay: Fluorescence enzyme assay, IC50 determination, Mch3
Type: biochemical
Conditions: Table 3; method of Preparation 3A; read-out: MCH3 I50
metric: pIC50
Give only the number. pIC50 is defined as minus log10 of concentration in molar units.

CC(C)C[C@H](NC(=O)CSc1cccc2ccccc12)C(=O)N[C@H](C=O)CC(=O)O [Example 16]: 5.76

Query :: Item CC(C)C[C@H](NC(=O)C(C)Oc1cccc2ccccc12)C(=O)N[C@H](C=O)CC(=O)O (stereo partly shown) [Example 14] : provide pIC50
Result :: 5.88

Query :: Item CC(C)C[C@H](NC(=O)CCSc1cccc2ccccc12)C(=O)N[C@H](C=O)CC(=O)O [Example 24] : provide pIC50
Result :: 5.44

Query :: Item CC(C)C[C@H](NC(=O)COc1ccc(Cl)c2ccccc12)C(=O)N[C@H](C=O)CC(=O)O [Example 28] : provide pIC50
Result :: 5.47

* * *

Entries annotated with measured pIC50
Molecular target: MCH-2 (Homo sapiens, UniProt P55212)
Test: Fluorescence enzyme assay, IC50 determination, Mch2
Type: biochemical
Conditions: Table 3; method of Preparation 3A; read-out: MCH2 I50
Give only the number. pIC50 is defined as minus log10 of concentration in molar units.

Examples with answers:
CC(C)C[C@H](NC(=O)COc1cccc2c1CCCC2)C(=O)N[C@H](C=O)CC(=O)O: 4.93
CC(C)C[C@H](NC(=O)COc1c(Cl)cc(Cl)c2ccccc12)C(=O)N[C@H](C=O)CC(=O)O: 4.67
CC(C)C[C@H](NC(=O)CCc1cccc2ccccc12)C(=O)N[C@H](C=O)CC(=O)O: 5.38
CC(C)C[C@H](NC(=O)CSc1ccc2ccccc2c1)C(=O)N[C@H](C=O)CC(=O)O: 5.50
CC(C)C[C@H](NC(=O)COc1cccc(-c2ccccc2)c1)C(=O)N[C@H](C=O)CC(=O)O: 4.84

Note: attention shifts to another entry.
Query :: Item CC(C)C[C@H](NC(=O)CCC(=O)c1cccc2ccccc12)C(=O)N[C@H](C=O)CC(=O)O : provide pIC50
Result :: 4.93

* * *

Entries annotated with measured log10 of IC50
Molecular target: mICE (Mus musculus)
Sequence (P29452 123-296 limits assumed): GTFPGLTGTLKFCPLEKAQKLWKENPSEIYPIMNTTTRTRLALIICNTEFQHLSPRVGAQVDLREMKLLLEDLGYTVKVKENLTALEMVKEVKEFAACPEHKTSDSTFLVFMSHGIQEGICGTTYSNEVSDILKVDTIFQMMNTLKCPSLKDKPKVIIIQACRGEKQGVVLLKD
Sequence (P29452 315-402 limits assumed): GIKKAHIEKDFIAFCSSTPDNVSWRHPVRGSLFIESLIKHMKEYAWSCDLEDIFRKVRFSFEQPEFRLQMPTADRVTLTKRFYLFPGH
Test: Fluorescence enzyme assay, IC50 determination, ICE
Format: biochemical
Settings: Table 3; method of Preparation 3A; read-out: mICE I50
Answers are given as log10 of IC50 in µM.

Examples with answers:
CC(C)C[C@H](NC(=O)CCSc1ccc2ccccc2c1)C(=O)N[C@H](C=O)CC(=O)O: -0.21
CC(C)C[C@H](NC(=O)CCOc1ccc2ccccc2c1)C(=O)N[C@H](C=O)CC(=O)O: 0.12
CC(C)C[C@H](NC(=O)COc1ccccc1Cc1ccccc1)C(=O)N[C@H](C=O)CC(=O)O: -0.28
CC(C)C[C@H](NC(=O)CCSc1cccc2ccccc12)C(=O)N[C@H](C=O)CC(=O)O: -0.25
CC(C)C[C@H](NC(=O)CCC(=O)c1ccc2ccccc2c1)C(=O)N[C@H](C=O)CC(=O)O: -0.27
CC(C)C[C@H](NC(=O)C(C)CC(=O)c1cccc2ccccc12)C(=O)N[C@H](C=O)CC(=O)O (some centres unmarked): 0.66

Query :: Lab note: record log10 of IC50 of CC(C)C[C@H](NC(=O)CCC(=O)c1cccc2ccccc12)C(=O)N[C@H](C=O)CC(=O)O tested on mICE (Mus musculus).
Result :: -0.39

Query :: Lab note: record log10 of IC50 of CC(C)C[C@H](NC(=O)COc1ccc(Cl)c2ccccc12)C(=O)N[C@H](C=O)CC(=O)O tested on mICE (Mus musculus).
Result :: -0.37

Reference source for all entries: patent US7157430B2
